FYI, the data here is from patent US10118928B2.

Assay overview: Concentration in mouse gastric mucin after a single oral dose
Format: in vivo
Test parameters: female, C57/BL6, mouse, gastric mucin, po, 10 mg/kg, mouse, 0.50 h after single dose 10 mg/kg PO; read-out: concentration in gastric mucin, Mean
Property: concentration at 0.5 h (ng/g)
Entry rule: numbers only, all in ng/g.

[in] Any idea what concentration at 0.5 h was measured for CCCCCC[C@@H](CO)NCc1c[nH]c2c(N)ncnc12 ?
[out] 65500

----------
Assay overview: Concentration in mouse gastric mucin after a single oral dose
Format: in vivo
Test parameters: female, C57/BL6, mouse, gastric mucin, po, 10 mg/kg, mouse, 0.25 h after single dose 10 mg/kg PO; read-out: concentration in gastric mucin, Animal-3
Property: concentration at 0.25 h (ng/g)
Entry rule: numbers only, all in ng/g.

[in] Any idea what concentration at 0.25 h was measured for CCCCCC[C@@H](CO)NCc1c[nH]c2c(N)ncnc12 [Hexyl-SerMe-Immucillin A] ?
[out] 45900

----------
Assay overview: Concentration in mouse gastric mucin after a single oral dose
Assay type: in vivo
Test parameters: female, C57/BL6, mouse, gastric mucin, po, 10 mg/kg, mouse, 0.25 h after single dose 10 mg/kg PO; read-out: concentration in gastric mucin, Animal-1
Protocol: (a) Oral Dosing of Mice with 10 mg/kg Hexyl-SerMe-Immucillin A: Female C57/BL6 mice ranging from 5-6 weeks in age and 18-22 grams in weight (Harlan Laboratories) were dosed by oral gavage with of Hexyl-SerMe-Immucillin A (0.4 mL of a 0.5 mg/mL solution in water for injection). […]
Property: concentration at 0.25 h
Express the reported value numerically, then name its unit.

[in] Any idea what concentration at 0.25 h was measured for CCCCCC[C@@H](CO)NCc1c[nH]c2c(N)ncnc12 ?
[out] 60400 ng/g

----------
Assay overview: Concentration in mouse gastric mucin after a single oral dose
Type: in vivo
Test parameters: female, C57/BL6, mouse, gastric mucin, po, 10 mg/kg, mouse, 0.25 h after single dose 10 mg/kg PO; read-out: concentration in gastric mucin, Animal-2
Procedure: (a) Oral Dosing of Mice with 10 mg/kg Hexyl-SerMe-Immucillin A: Female C57/BL6 mice ranging from 5-6 weeks in age and 18-22 grams in weight (Harlan Laboratories) were dosed by oral gavage with of Hexyl-SerMe-Immucillin A (0.4 mL of a 0.5 mg/mL solution in water for injection). […]
Property: concentration at 0.25 h (ng/g)
Entry rule: numbers only, all in ng/g.

[in] Any idea what concentration at 0.25 h was measured for CCCCCC[C@@H](CO)NCc1c[nH]c2c(N)ncnc12 ?
[out] 64400

----------
Assay overview: Concentration in mouse gastric mucin after a single oral dose
Type: in vivo
Test parameters: female, C57/BL6, mouse, gastric mucin, po, 10 mg/kg, mouse, 8.00 h after single dose 10 mg/kg PO; read-out: concentration in gastric mucin, Animal-2
Procedure: (a) Oral Dosing of Mice with 10 mg/kg Hexyl-SerMe-Immucillin A: Female C57/BL6 mice ranging from 5-6 weeks in age and 18-22 grams in weight (Harlan Laboratories) were dosed by oral gavage with of Hexyl-SerMe-Immucillin A (0.4 mL of a 0.5 mg/mL solution in water for injection). […]
Property: concentration at 8 h

[in] Any idea what concentration at 8 h was measured for CCCCCC[C@@H](CO)NCc1c[nH]c2c(N)ncnc12 [Hexyl-SerMe-Immucillin A] ?
[out] 1620 ng/g
